- EXPERIMENT NOTES: soluble on expression in E. coli; label from the status in PepcDB or PDB records
MEASURED QUANTITY: soluble on expression in E. coli

Example sequences with recorded soluble on expression in E. coli:
>>> val("SLIENSHVKKDDIWPSGGQMTVKDLTAKYTEGGNAILENISFSISPGQRVGLLGRTGSGKSTLLSAFLRLLNTEGEIQIDGVSWDSITLEQWRKAFGVIPQKVFIFSGTFRKNLDPYEQWSDQEIWKVADEVGLRSVIEQFPGKLDFVLVDGGCVLSHGHKQLMCLARSVLSKAKILLLDEPSAHLDPVTYQIIRRTLKQAFADCTVILCEARIEAMLECDQFLVIEENKVRQYDSIQKLLNERSDFRQAISPSDGPSAQLEKELQALEKENAQLEWELQALEKELAQ")
"soluble"
>>> val("MNMVAQQMPSPEEIAAQLQMIRDQIAELQGVLAQLELRLRSVQAAKETVEKAAGQDGETLFPGDPELNTILKARLLEPGKAIVHLGLNVYAKLDTAKATEILAKKEDALKRSLETLKQELDKLSRTHDQYLQLLQALTAGQAAQQAGQQQKQGS")
"soluble"
>>> val("MDKDCEMKRTTLDSPLGKLELSGCEQGLHEIKLLGKGTSAADAVEVPAPAAVLGGPEPLMQCTAWLNAYFHQPEAIEEFPVPALHHPVFQQESFTRQVLWKLLKVVKFGEVISYQQLAALAGNPKAARAVGGAMRGNPVPILIPCHRVVCSSGAVGNYSGGLAVKEWLLAHEGHRLGKPGLGGSSGLAGAWLKGAGATSGSPPAGRN")
"soluble"
>>> val("MASTIYTCKECGSDLNLNPNDLFPPDFYFEAGNKGTLSFAAVDAEKFRFEKEDKIMPFFETLNYWGIQRKRTKIKCTSCNHLIGYIYDDGPPLTGGIGQYGFGPSQVIPRAPRYRFKTKARQDGWQYGGLTAFWN")
"not soluble"
>>> val("GMECRPLCIDDLELVCRHREAMFREAGRDALTLAAMQDPFRDWLLPRLADGSYFGWVMEEGGAPLAGIGLMVIEWPPHPSHPLQDKRGYILNLYVDPSHRERGIGQALMNRAEAEFAERGIAFAVLHATEMGQPLYARMGWSPTTEMSKPIAG")
"soluble"
>>> val("MGSDKIHHHHHHMREEWLFSRYLNRKRVQRAASLGAGRAETEIALLELGAVEHFDLFDVSSVGIEYAKSIAEEKGFGHKVTCHVGPIGCAELNENTYDLITFVASLHHMEPLAETLERANRALTQHGIIWCANEYIGPDRFDYPVAHAAIAKSFFQQIPPGLRNHWHRELQFPTPQEVAEVDPTEAPCSSKIEPTMRDMFPALEIMPLYGAFAFMVFWGLNHDALYETPEGTELTRFILGMDKALTDAGILPTYFAHIIARKNNAPRQQIHRPGRHSSALLYRYAQRAASILRHLKIR")
"not soluble"

The record that follows has no soluble on expression in E. coli shown yet.
Data point: MGHHHHHHSHMSSYHCAMNNENARLLTFQTWPLTFLSPTDLAKAGFYYIGPGDRVACFACGGKLSNWEPKDNAMSEHLRHFPKCPFIENQLQDTSRYTVSNLSMQTHAARFKTFFNW ; soluble on expression in E. coli = not soluble

---

- EXPERIMENT NOTES: soluble on expression in E. coli; label from the status in PepcDB or PDB records
MEASURED QUANTITY: soluble on expression in E. coli

>>> val("MKLYYSPGACSLSPHIALREAGLNFELVQVDLASKKTASGQDYLEVNPAGYVPCLQLDDGRTLTEGPAIVQYVADQVPGKQLAPANGSFERYHLQQWLNFISSELHKSFSPLFNPASSDEWKNAVRQSLNTRLGQVARQLEHAPYLLGDQLSVADIYLFVVLGWSAYVNIDLSPWPSLQAFQGRVGGREAVQSALRAEGLIKE")
"soluble"
>>> val("MKGDHYSPNWPQLALSKKQSVNWVCERCGVQCLKPGEGKGLLKEERYRFRMAVHHCDYDPSNNSPSNLMALCSLCHLYYHRRQQGNISLGQLSLEFYLEHHHHHH")
"soluble"
>>> val("GSAAEVMKKYCSTCDISFNYVKTYLAHKQFYCKNKP")
"soluble"

FYI, the data here is from the DeepSol protein solubility set.
